system: 168753-222-R-J1-PDC complex spheroid viability; assay: Anticancer human tumor 168753-222-R-J1-PDC patient-derived bladder carcinoma cell line growth inhibition [CLK]; settings: second compound 1 µM; first compound 0.1 µM; active compounds read low
REPORTED_ENDPOINT: viability, T/C

CCN1CCN(Cc2ccc(Nc3ncc(F)c(-c4cc(F)c5nc(C)n(C(C)C)c5c4)n3)nc2)CC1 + CNC(=O)c1ccc(Nc2nc(OC3CCCC3)c3c(-c4ccc5nc(C)oc5c4)c[nH]c3n2)c(OC)c1 = 22.5%
COc1ccc([C@@H](O)c2cc(-c3ncnc4cc(N5CCOCC5)ccc34)c(F)cc2Cl)nn1 + CNC(=O)c1ccc(Nc2nc(OC3CCCC3)c3c(-c4ccc5nc(C)oc5c4)c[nH]c3n2)c(OC)c1 = 27.2%
O=c1[nH]cc(F)c(=O)[nH]1 + CNC(=O)c1ccc(Nc2nc(OC3CCCC3)c3c(-c4ccc5nc(C)oc5c4)c[nH]c3n2)c(OC)c1 = 36%
C=C(F)C(=O)N1CCN(c2nc(OCC3CCCN3C)nc3c2CCN(c2cccc4cccc(Cl)c24)C3)CC1CC#N (stereo not given) + CN1CCN(c2cc(C(=O)Nc3cc4cc(-c5cnn(C)c5)ccc4cn3)ccn2)CC1 = 0.78%
CC(=O)O[C@H]1C(=O)[C@@]2(C)[C@H]([C@H](OC(=O)c3ccccc3)[C@]3(O)C[C@H](OC(=O)[C@H](O)[C@@H](NC(=O)c4ccccc4)c4ccccc4)C(C)=C1C3(C)C)[C@]1(OC(C)=O)CO[C@@H]1C[C@@H]2O + CNC(=O)c1ccc(Nc2nc(OC3CCCC3)c3c(-c4ccc5nc(C)oc5c4)c[nH]c3n2)c(OC)c1 = 34.7%
COc1c(OCCCN2CCOCC2)ccc2c3n(c(=NC(=O)c4cnc(N)nc4)nc12)CCN3 + CN1CCN(c2cc(C(=O)Nc3cc4cc(-c5cnn(C)c5)ccc4cn3)ccn2)CC1 = 0.05%
COC1C=CCC(C)C(C)S(=O)(=O)NC(=O)c2ccc3c(c2)N(CC2CCC21)CC1(CCCc2cc(Cl)ccc21)CO3 (stereo not given) + CN1CCN(c2cc(C(=O)Nc3cc4cc(-c5cnn(C)c5)ccc4cn3)ccn2)CC1 = 3.47%
Nc1ccn(C2OC(CO)C(O)C2(F)F)c(=O)n1 (stereo not given) + CNC(=O)c1ccc(Nc2nc(OC3CCCC3)c3c(-c4ccc5nc(C)oc5c4)c[nH]c3n2)c(OC)c1 = 18.9%
COc1cccc2c1C(=O)c1c(O)c3c(c(O)c1C2=O)CC(O)(C(=O)CO)CC3OC1CC(N)C(O)C(C)O1 (stereo not given) + CNC(=O)c1ccc(Nc2nc(OC3CCCC3)c3c(-c4ccc5nc(C)oc5c4)c[nH]c3n2)c(OC)c1 = 18.5%

Now examine the next entry.
Request: viability, T/C lookup needed for CCN1CCN(Cc2ccc(Nc3ncc(F)c(-c4cc(F)c5nc(C)n(C(C)C)c5c4)n3)nc2)CC1 + CN1CCN(c2cc(C(=O)Nc3cc4cc(-c5cnn(C)c5)ccc4cn3)ccn2)CC1 , thanks.
Response: 0.13%

###

test system: 168753-222-R-J1-PDC complex spheroid viability; assay: Anticancer human tumor 168753-222-R-J1-PDC cell line growth inhibition [CLK]; conditions: second compound 0.316 µM; first compound 0.316 µM; active compounds read low;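 also: luminescence signal used as surrogate for viable cell amount; viability measured after seven days of drug exposure; 100% = DMSO vehicle control wells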
Label key: MET means viability, T/C under 70%; NOT MET means viability, T/C of 70% or more.

C=CC(=O)N1CCN(c2nc(=O)n(-c3c(C)ccnc3C(C)C)c3nc(-c4c(O)cccc4F)c(F)cc23)C(C)C1 (stereo not given) + CNC(=O)c1ccc(Nc2nc(OC3CCCC3)c3c(-c4ccc5nc(C)oc5c4)c[nH]c3n2)c(OC)c1 = NOT MET
Nc1ccn(C2OC(CO)C(O)C2(F)F)c(=O)n1 (stereo not given) + CN1CCN(c2cc(C(=O)Nc3cc4cc(-c5cnn(C)c5)ccc4cn3)ccn2)CC1 = MET
CC(Nc1ccc2c(c1)OCCn1cc(N3C(=O)OCC3C(F)F)nc1-2)C(N)=O (stereo not given) + CNC(=O)c1ccc(Nc2nc(OC3CCCC3)c3c(-c4ccc5nc(C)oc5c4)c[nH]c3n2)c(OC)c1 = MET

Request: Report whether reported viability, T/C is lower than 70% (strictly) for CC(CO)NC(=O)c1cc(-c2ccc(Cl)cc2)nn(-c2cnn(C)c2)c1=O (stereo not given) + CNC(=O)c1ccc(Nc2nc(OC3CCCC3)c3c(-c4ccc5nc(C)oc5c4)c[nH]c3n2)c(OC)c1
Response: NOT MET

Request: Report whether reported viability, T/C is lower than 70% (strictly) for CC(Nc1ccc2c(c1)OCCn1cc(N3C(=O)OCC3C(F)F)nc1-2)C(N)=O (stereo not given) + CN1CCN(c2cc(C(=O)Nc3cc4cc(-c5cnn(C)c5)ccc4cn3)ccn2)CC1
Response: MET
